B1: library; a variant is named by its letters at N, in order (parent)
chain: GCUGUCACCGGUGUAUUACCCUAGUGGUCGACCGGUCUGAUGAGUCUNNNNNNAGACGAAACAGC

- Variants of: B1
- experimentSummary: normalized RNA/DNA level with ligand (relative to sTRSVctl = 100) (log10 (% of sTRSVctl)); ligand: hypoxanthine (xanthine aptamer); higher = less ribozyme self-cleavage, higher mRNA level
- conditions: ligand concentration (+) RNA-Seq: 5 mM, HEK293T, reporter: mCherry (pCS4076), ligand present: yes
quantityMeasured: normalized RNA/DNA level with ligand (log10)
Answers are plain numbers.

A selection of reference data follows.
UACUGA ... 1.95
GCACGU ... 1.91
UGCGCG ... 1.94
ACCCUU ... 1.97
UCGCUU ... 1.98

Give normalized RNA/DNA level with ligand (log10) for each listed item.
1. CGUCUG
2. CCACGC
3. ACCUCC
4. CGCAAC
5. AGAUCA
6. AAAUUA

[1.95, 2.01, 1.99, 1.93, 1.97, 1.9]

Give normalized RNA/DNA level with ligand (log10) for each listed item.
1. GUUGCG
2. CGGGGC
3. UGGUAA
4. CAUUGU

1. 1.87
2. 1.95
3. 1.9
4. 1.94

Give normalized RNA/DNA level with ligand (log10) for each listed item.
1. CGCGCU
2. CUCGGC
3. CCGGCU
4. GUCGGC
5. CACCGG

1. 1.92
2. 1.97
3. 2.04
4. 1.91
5. 1.88
